Reference source for all entries: patent US20250026778A1

Target: his-galectin-3 (Homo sapiens)
Construct: purchased Abcam
Test: TR-FRET assay (in vitro galectin-3 binding inhibitory activity test)
Conditions: Table 1; compound at 20 μM; 60 nM his-galectin-3, 15 nM biotin-ASF; read-out: % Inhibitory activity (at 20 μM)
Entries and their measured inhibition at 20 µM follow.

Solved cases below.
{"columns": ["Compound", "inhibition at 20 µM"],
 "data": [
  ["OC[C@H]1O[C@@]2(CCCO2)[C@H](OCc2ccncc2)[C@@H](n2cc(-c3cc(F)c(F)c(F)c3)nn2)[C@H]1O", "25 to 50%"],
  ["O=C(Cc1cccc(C(F)(F)F)c1)N[C@@H]1CCO[C@]12O[C@H](CO)[C@H](O)[C@H](n1cc(-c3cc(F)c(F)c(F)c3)nn1)[C@H]2O", "> 75%"],
  ["O=C(CO[C@@H]1[C@@H](n2cc(-c3cc(F)c(F)c(F)c3)nn2)[C@@H](O)[C@@H](CO)O[C@@]12CCCO2)N1CC(F)(F)C1", "25 to 50%"],
  ["O=C(CO[C@@H]1[C@@H](n2cc(-c3cc(F)c(F)c(F)c3)nn2)[C@@H](O)[C@@H](CO)O[C@@]12CCCO2)N1CCC(O)CC1", "25 to 50%"]
]}

## Task State, in one line, measured inhibition at 20 µM of O=C(N[C@@H]1CCO[C@]12O[C@H](CO)[C@H](O)[C@H](n1cc(-c3cc(F)c(F)c(F)c3)nn1)[C@H]2O)c1cccc(Oc2ccccc2)c1
## Result 50 to 75%

====

Molecular target: his-galectin-3 (Homo sapiens, UniProt P17931)
Construct: purchased Abcam
Sequence (P17931 whole entry): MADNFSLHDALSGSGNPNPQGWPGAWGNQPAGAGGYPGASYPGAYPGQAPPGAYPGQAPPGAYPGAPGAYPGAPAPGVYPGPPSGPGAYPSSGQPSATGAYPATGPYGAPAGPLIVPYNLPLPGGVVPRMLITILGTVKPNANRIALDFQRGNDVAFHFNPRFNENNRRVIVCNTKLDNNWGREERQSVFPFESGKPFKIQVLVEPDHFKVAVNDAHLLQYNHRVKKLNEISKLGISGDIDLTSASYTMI
Assay: TR-FRET assay (in vitro galectin-3 binding inhibitory activity test)
Settings: Table 2; compound at 20 μM; 60 nM his-galectin-3, 15 nM biotin-ASF; read-out: % Inhibitory activity (at 20 μM)
Entries and their measured inhibition at 20 µM follow.

{"columns": ["Molecule", "inhibition at 20 µM"],
 "data": [
  ["COc1ccc2ccccc2c1C(=O)N[C@@H]1CCO[C@]12O[C@H](CO)[C@H](O)[C@H](n1cc(-c3cc(F)c(F)c(F)c3)nn1)[C@H]2O", "50 to 75%"],
  ["CC1CO[C@@]2(C1)O[C@H](CO)[C@H](O)[C@H](n1cc(-c3cc(F)c(F)c(F)c3)nn1)[C@H]2O (some centres unmarked)", "50 to 75%"],
  ["O=C(N[C@@H]1CCO[C@]12O[C@H](CO)[C@H](O)[C@H](n1cc(-c3cc(F)c(F)c(F)c3)nn1)[C@H]2O)c1coc2ccc(Br)cc12", "> 75%"],
  ["Cc1ccc(C(=O)N[C@@H]2CCO[C@]23O[C@H](CO)[C@H](O)[C@H](n2cc(-c4cc(F)c(F)c(F)c4)nn2)[C@H]3O)c2ccccc12", "> 75%"]
]}

## Task State, in one line, measured inhibition at 20 µM of OC[C@H]1O[C@]2(OCC[C@H]2/N=C\c2c(O)ccc3ccccc23)[C@H](O)[C@@H](n2cc(-c3cc(F)c(F)c(F)c3)nn2)[C@H]1O
## Result < 25%

## Task State, in one line, measured inhibition at 20 µM of O=C(N[C@@H]1CCO[C@]12O[C@H](CO)[C@H](O)[C@H](n1cc(-c3cc(F)c(F)c(F)c3)nn1)[C@H]2O)c1cc(=O)[nH]c2ccccc12
## Result 50 to 75%
